Field IC50: reported value for Coagulation factor X (Homo sapiens, UniProt P00742); entries drawn from several documents.
value_type: IC50 (nM)

# example entries with known answers
>  <molecule>
CN(C)C(=N)c1ccc(C(=O)Nc2ccc(Cl)cc2C(=O)Nc2ccc(Cl)cn2)c(N(C)C)c1

>  <IC50 / nM>
3

$$$$
>  <molecule>
N=C1NCCN1Cc1ccc(C(=O)Nc2ccc(Cl)cc2C(=O)Nc2ccc(Cl)cn2)cc1

>  <IC50 / nM>
1.5

$$$$
>  <molecule>
Cc1cc(C(=O)Nc2ccc(-c3ccccc3S(C)(=O)=O)cc2F)n(-c2ccc3cc(Cl)ccc3c2)n1

>  <IC50 / nM>
6

$$$$
>  <molecule>
CC(C)C[C@@H](NC(=O)c1ccc(Cl)s1)C(=O)Nc1ccc(-n2ccncc2=O)cc1

>  <IC50 / nM>
39

$$$$
>  <molecule>
Cc1cc(C(=O)Nc2ccc(-c3ccccc3S(N)(=O)=O)cc2)n(-c2cc3ccccc3cc2Br)n1

>  <IC50 / nM>
143

$$$$

P. CN1CCc2nc(C(=O)Nc3ccccc3CNC(=O)c3cc(Cl)c[nH]3)sc2C1
Q. CC[C@@H](C)[C@@H](NC1CCCCC1)C(=O)N1C[C@@](C)(C#N)C[C@H]1C(=O)NCc1ccc2c(N)nccc2c1
// compare: P vs Q , metric IC50, want the smaller Please reply using the label of the selected record.
P

###

Compiled record: IC50 values for Coagulation factor X (Homo sapiens, UniProt P00742) across several sources.
value_type: IC50 (nM)

>  <compound>
N=C(N)NCCC[C@H](NC(=O)[C@H](Cc1ccccc1)NC(=O)[C@@H](Cc1ccccc1)NS(=O)(=O)Cc1ccccc1)C(=O)c1nccs1

>  <IC50 (nM)>
27

$$$$
>  <compound>
CO[C@H]1CCN(c2ccc3c(c2)OC[C@H]2[C@H](CNC(=O)c4ccc(Cl)s4)OC(=O)N32)C(=O)C1

>  <IC50 (nM)>
1860

$$$$
>  <compound>
NC1CCN(Cc2ccc(C(=O)Nc3ccc(Cl)cc3C(=O)Nc3ccc(Cl)cn3)cc2)CC1

>  <IC50 (nM)>
15

$$$$

1. CN1C2(CCN(c3ccncc3)CC2)CN2C(=O)CN(S(=O)(=O)c3ccc4cc(Cl)ccc4c3)CC21CO (stereo not drawn)
2. Cc1cc2cc(N/C(N[C@H]3CCCCN(CC(=O)N4CCCC4)C3=O)=C(/C#N)S(C)(=O)=O)ccc2o1
Record comparison, field IC50: mark the lower of 1 and 2 . State your choice using its label.
1
(1: 0.58 nM, 2: 46 nM)

###

pIC50: −log10 of the molar value.
Collected literature values of pIC50 measured for Coagulation factor X (Homo sapiens).
value_type: pIC50

I. Cc1nc2ccc(N=C(NC#N)N[C@H]3CCCCN(CC(=O)N4CCCC4)C3=O)cc2[nH]1
II. CN1CCc2nc(C(=O)N[C@@H]3CCCCC[C@H]3NC(=O)c3cc4cc(Cl)ccc4[nH]3)sc2C1 (relative stereo)
III. C=C=Cc1ccc(-c2ccc(C(=O)NCC(C)C)cc2C(=O)O)c(C(=O)Nc2ccc(C(=N)N)cc2)c1
Could you please order the items by pIC50, going from the lowest number to the highest? Dear reader, please state the labels in the requested order.
I, III, II

###

pIC50: −log10 of the molar value.
This section presents pIC50 values reported for Coagulation factor X (Homo sapiens) in the literature.
value_type: pIC50

>  <compound>
CN(C(=O)[C@@H]1Cc2ccccc2CN1C(=O)c1ccc(Cl)cc1)c1ccc(N2CCCCC2=O)cc1

>  <tested_target>
Coagulation factor X (Homo sapiens)

>  <reported_result>
3.71

$$$$
>  <compound>
CN1CCc2nc(NC(=O)c3ccccc3CNC(=O)c3ccc(Cl)s3)sc2C1

>  <tested_target>
Coagulation factor X (Homo sapiens)

>  <reported_result>
7.23

$$$$
>  <compound>
Cc1cc2cc(N/C(=N\C#N)N[C@H]3CCCCN(CC(=O)N4CCCC4)C3=O)cc(Cl)c2o1

>  <tested_target>
Coagulation factor X (Homo sapiens)

>  <reported_result>
7.57

$$$$
>  <compound>
CS(=O)(=O)N(Cc1ccc2ccc(C(=N)N)cc2c1)C1CCN(S(=O)(=O)c2cccc(Cl)c2Cl)CC1

>  <tested_target>
Coagulation factor X (Homo sapiens)

>  <reported_result>
6.25

$$$$
>  <compound>
Cc1ccccc1S(=O)(=O)N1CCC(N(Cc2ccc3ccc(C(=N)N)cc3c2)S(C)(=O)=O)CC1

>  <tested_target>
Coagulation factor X (Homo sapiens)

>  <reported_result>
6.02

$$$$
>  <compound>
C/C(=C(\F)C(=O)Nc1ccc(-c2ccccc2S(N)(=O)=O)cc1F)c1cccc(C(=N)NO)c1

>  <tested_target>
Coagulation factor X (Homo sapiens)

>  <reported_result>
5.80

$$$$
>  <compound>
O=C(NC[C@@H]1OC(=O)N2c3ccc(N4CCCCC4=O)cc3CC[C@@H]12)c1ccc(Cl)s1

>  <tested_target>
Coagulation factor X (Homo sapiens)

>  <reported_result>
8.18

$$$$
>  <compound>
N=C(c1ccc(C(=O)N2CCN(S(=O)(=O)c3ccc4cc(Br)ccc4c3)CC2)cc1)N1CCCC1

>  <tested_target>
Coagulation factor X (Homo sapiens)

>  <reported_result>
6.41

$$$$
>  <compound>
O=C(Nc1ccc(N2CCCCC2=O)cc1)[C@@H]1Cc2ccccc2CN1C(=O)c1ccc(C(F)(F)F)cc1

>  <tested_target>
Coagulation factor X (Homo sapiens)

>  <reported_result>
4.88

$$$$
>  <compound>
O=c1c(O)c(-c2ccc(O)c(O)c2)oc2cc(O)cc(OCc3ccc(COc4cc(O)cc5oc(-c6ccc(O)c(O)c6)c(O)c(=O)c45)cc3)c12

>  <tested_target>
Coagulation factor X (Homo sapiens)

>  <reported_result>
3.67

$$$$

1. CCCOc1ccc(Oc2nc(Oc3cccc(C(=N)N)c3)c(F)c(NC(C)CCc3ccccc3)c2F)c(C(=O)O)c1 (centres undefined)
2. N=C(N)NCCC[C@H](NC(=O)[C@H](Cc1cccc(F)c1)NC(=O)[C@@H](Cc1ccccc1)NS(=O)(=O)Cc1ccccc1)C(=O)c1nccs1
3. N=C(N)N1CCc2ccc(OCC3CCNCC3)cc2C1
4. Cc1cc(C(=O)Nc2ccc(N3CCOCC3=O)cc2F)n(-c2cc3ccccc3cc2F)n1
5. CN(C)C(=N)c1ccc(CN2CCN(S(=O)(=O)c3cc4ccc(Cl)cc4s3)CC2=O)cc1
Please rank these compounds by pIC50 in descending order. A ranking is expressed here by listing the labels in the requested order.
4, 5, 2, 3, 1
(4: 8.70, 5: 7.52, 2: 6.60, 3: 5.48, 1: 4.59)

a. Cc1ccc(Oc2nc(Oc3cccc(C(=N)N)c3)c(F)c(NC(C)CCc3ccccc3)c2F)c(C(=O)O)c1 (centres undefined)
b. N=C(N)c1cccc(-c2ccc(C(=O)Nc3ccc(Cl)cc3C(=O)Nc3ccc(Cl)cn3)cc2)c1
c. COc1ccc(-n2nc(Cn3cc(C#N)nn3)c3c2C(=O)N(c2ccc(N4CCCCC4=O)cc2)CC3)cc1
d. CC(=O)O[C@@H]1CC[C@@]2(C)[C@@H]3CC[C@](C)([C@@H](O)CO)C=C3CC[C@@H]2C1(C)C
Rank the 4 compounds: largest pIC50 first, smallest last. The reply should contain the labels ordered as requested.
b, c, d, a
(b: 8.80, c: 6.44, d: 5.52, a: 4.54)

I. COc1ccc(CC(=O)N2Cc3ccccc3C[C@H]2C(=O)N(C)c2ccc(N3CCCCC3=O)cc2)cc1OC
II. COC(=O)C(Cc1cccc(C(=N)N)c1)C(/C=C/c1ccccc1)NC(=O)c1ccc2ccccc2c1 (centres undefined)
III. CC(C)C[C@H](NC(=O)NC(C)c1ccc(Br)cc1)C(=O)N[C@H](C(=O)N[C@@H](CCCNC(=N)N)C(=O)c1nccs1)C(C)C (some centres undefined)
Reorder: pIC50, max to min. Please, when replying, give the labels in the order that was requested.
II, III, I
(II: 6.80, III: 4.82, I: 3.61)

###

pIC50: −log10 of the molar value.
Let's look at some pIC50 data for Coagulation factor X (Homo sapiens, UniProt P00742) that I collected from the literature.
value_type: pIC50

>  <compound>
O=C(OC1O[C@@H]2COC(=O)c3cc(O)c(O)c(O)c3-c3c(cc(O)c(O)c3O)C(=O)O[C@H]2[C@H](OC(=O)c2cc(O)c(O)c(O)c2)[C@H]1OC(=O)c1cc(O)c(O)c(O)c1)c1cc(O)c(O)c(O)c1 (some centres undefined)

>  <reported_result>
6.68

$$$$
>  <compound>
N=C(N)c1ccc(CNC(=O)[C@@H]2CCN2C(=O)[C@H](NCC(=O)O)C2CCCCC2)cc1

>  <reported_result>
4.76

$$$$
>  <compound>
N=C(c1ccc(C(=O)N2CCN(S(=O)(=O)c3cc4ccc(Cl)cc4s3)CC2)cc1)N1CCCC1

>  <reported_result>
7.15

$$$$
>  <compound>
CN1CCCN(c2ccccc2-c2ccc(C(=O)Nc3ccc(Cl)cc3C(=O)Nc3ccc(Cl)cn3)cc2)CC1

>  <reported_result>
8.51

$$$$
>  <compound>
CN(C)C(=N)c1ccc(C(=O)N2CCN(S(=O)(=O)c3ccc4cc(Br)ccc4c3)CC2)cc1

>  <reported_result>
6.64

$$$$

I. N=C(N)c1ccc2ccc(CC(C(=O)O)c3ccc(O[C@H]4CCNC4)cc3)cc2c1 (some centres undefined)
II. N=C(N)NCCC[C@H](NC(=O)[C@H](CCc1ccccc1)NC(=O)[C@@H](Cc1ccccc1)NS(=O)(=O)Cc1ccccc1)C(=O)c1nccs1
III. Cc1cc(C(=O)Nc2ncc(-c3ccccc3S(N)(=O)=O)cn2)n(-c2ccc3cc(Cl)ccc3c2)n1
IV. CCOc1cc(Cl)cc(C(=O)Nc2ccc(Cl)cn2)c1NC(=O)c1ccc(C(=N)N(C)C)cc1
Order the items by recorded pIC50; the first position goes to the largest value. Response format: the labels, sorted as the prompt asks.
IV, III, I, II
(IV: 9.22, III: 8.15, I: 6.70, II: 6.27)
